Origin of values: the supplement of paper PMC7877785

Experiment: self-splicing fitness, log relative to wild type (ln ratio); higher = more splicing; Tetrahymena group I intron in knt gene, E. coli kanamycin selection, DiMSum; sequences stand for … in CUCUCU…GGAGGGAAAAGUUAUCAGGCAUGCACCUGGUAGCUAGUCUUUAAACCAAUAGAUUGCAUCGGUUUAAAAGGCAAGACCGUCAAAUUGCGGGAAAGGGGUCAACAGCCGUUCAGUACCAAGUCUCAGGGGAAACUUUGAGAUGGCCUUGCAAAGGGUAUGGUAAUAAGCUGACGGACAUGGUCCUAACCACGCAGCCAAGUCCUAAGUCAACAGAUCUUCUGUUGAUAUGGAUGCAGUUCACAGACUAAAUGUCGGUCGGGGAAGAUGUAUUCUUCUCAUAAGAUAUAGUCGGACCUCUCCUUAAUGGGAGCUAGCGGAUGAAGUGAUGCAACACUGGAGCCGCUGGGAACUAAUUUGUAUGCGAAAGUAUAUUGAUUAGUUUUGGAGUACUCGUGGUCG;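 further: selection with 25 µg/mL kanamycin versus none on LB agar overnight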
Conditions: 37 °C
MEASURED_QUANTITY: self-splicing fitness (ln)

Some solved cases for reference:
CONSTRUCT_SEQUENCE | self-splicing fitness (ln)
CAAAAGCAAUAUUACGUAUU | -2.78
AAUCAGCAAUAUUACGACAA | 0.189
ACCAAGCAAUAUUACGGUAA | -2.02

Lab note: each sequence below needs its self-splicing fitness (ln) filled in.
1. AUACAGCAAUAUUACGCGAU
2. AGCCAGCAAUAUUACGGGAU
3. CAGGAGCAAUAUUACGUUAG

Response:
[-1.94, -2.05, -0.918]

Lab note: each sequence below needs its self-splicing fitness (ln) filled in.
1. GCGAAGCAAUAUUACGGCCG
2. CCAUAGCAAUAUUACGCGAU

Response:
1: -1.34; 2: -2.91

---

Experiment: self-splicing fitness, log relative to wild type (ln ratio); higher = more splicing; Tetrahymena group I intron in knt gene, E. coli kanamycin selection, DiMSum; sequences stand for … in CUCUCU…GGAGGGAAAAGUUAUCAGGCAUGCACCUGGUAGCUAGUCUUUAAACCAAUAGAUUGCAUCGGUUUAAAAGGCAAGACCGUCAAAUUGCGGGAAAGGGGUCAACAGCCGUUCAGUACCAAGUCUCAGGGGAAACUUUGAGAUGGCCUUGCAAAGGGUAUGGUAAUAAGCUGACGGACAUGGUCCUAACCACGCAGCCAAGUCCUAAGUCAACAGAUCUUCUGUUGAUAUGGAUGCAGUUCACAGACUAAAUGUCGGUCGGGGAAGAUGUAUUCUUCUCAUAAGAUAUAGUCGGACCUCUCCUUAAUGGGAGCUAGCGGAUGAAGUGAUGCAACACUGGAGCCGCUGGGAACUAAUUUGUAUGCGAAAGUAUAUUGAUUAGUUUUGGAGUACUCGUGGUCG
Conditions: 30 °C
Param threshold (-2) applies to self-splicing fitness (ln); output criterion met when value >= threshold, criterion not met when value < threshold.

As a guide, the following entries are already answered.
CONSTRUCT_SEQUENCE | LABEL_VALUE
CCAUAGCAAUAUUACGGGAU | criterion not met
CACAAGCAAUAUUACGAUUC | criterion not met
GAUCAGCAAUAUUACGCGCU | criterion met
GUCAAGCAAUAUUACGUGCA | criterion met
GAAAAGCAAUAUUACGAUAA | criterion met

Query: Is reported self-splicing fitness (ln) greater than or equal to -2 here: `UGCUAGCAAUAUUACGGGAA`
Response: criterion met

Query: Is reported self-splicing fitness (ln) greater than or equal to -2 here: `GAUAAGCAAUAUUACGGUAU`
Response: criterion not met

Query: Is reported self-splicing fitness (ln) greater than or equal to -2 here: `AACGAGCAAUAUUACGUGCG`
Response: criterion not met

Query: Is reported self-splicing fitness (ln) greater than or equal to -2 here: `CCCCAGCAAUAUUACGGGUA`
Response: criterion not met
